All figures here come from ChEMBL document CHEMBL2346595.

test: Clearance in mouse liver microsomes at 1 uM by LC-MS/MS method per mg of protein; format: ADME, Microsome; conditions: read-out: CLH
OBSERVABLE: microsomal CLint at 1 µM (µL/min/mg)

INSERT INTO results (smiles_record, observed_measurement) VALUES
  ('C[C@]1(c2cc(NC(=O)c3nn(C(F)F)cc3Cl)ccc2F)N=C(N)OCC1(F)F', 9);

(1) C[C@]1(c2cc(NC(=O)c3ccn(C(F)F)n3)ccc2F)N=C(N)OCC1(F)F
(2) Cn1cc(Cl)c(C(=O)Nc2ccc(F)c([C@@]3(C)N=C(N)OCC3(F)F)c2)n1
(3) Cn1ccc(C(=O)Nc2ccc(F)c([C@@]3(C)N=C(N)OCC3(F)F)c2)n1
Please order the records by their reported microsomal CLint at 1 µM, lowest number first. Thanks in advance for listing the labels in the requested order.
1, 2, 3
(1: 59 µL/min/mg, 2: 98 µL/min/mg, 3: 200 µL/min/mg)

====

species on record: Homo sapiens; test: Selectivity ratio of IC50 for human BACE2 to IC50 for human BACE1
OBSERVABLE: Ratio IC50

These solved cases illustrate the format of a correct answer.
INSERT INTO measurements (smiles_record, observed_measurement) VALUES
  ('C[C@]1(c2cc(NC(=O)c3ncc(Cl)cc3Cl)ccc2F)N=C(N)OCC1(F)F', 0.5),
  ('C#Cc1ccc(C(=O)Nc2ccc(F)c([C@@]3(C)N=C(N)OCC3(F)F)c2)nc1', 1),
  ('Cc1ccc(C(=O)Nc2ccc(F)c([C@@]3(C)N=C(N)OCC3(F)F)c2)nc1', 0.3),
  ('Cn1ccc(C(=O)Nc2ccc(F)c([C@@]3(C)N=C(N)OCC3(F)F)c2)n1', 0.2),
  ('C[C@]1(c2cc(NC(=O)c3cnc(OCC(F)(F)F)cn3)ccc2F)N=C(N)OCC1(F)F', 38),
  ('COc1ccc(C(=O)Nc2ccc(F)c([C@@]3(C)N=C(N)OCC3(F)F)c2)nc1', 1),
  ('CCOc1ccc(C(=O)Nc2ccc(F)c([C@@]3(C)N=C(N)OCC3(F)F)c2)nc1', 5),
  ('C[C@]1(c2cc(NC(=O)c3ccc(OC(F)(F)F)cn3)ccc2F)N=C(N)OCC1(F)F', 4),
  ('C#CCOc1cnc(C(=O)Nc2ccc(F)c([C@@]3(C)N=C(N)OCC3(F)F)c2)cn1', 13);

(P) C[C@]1(c2cc(NC(=O)c3ccc(OCC(F)(F)F)cn3)ccc2F)N=C(N)OCC1(F)F
(Q) C[C@]1(c2cc(NC(=O)c3ncc(Cl)cn3)ccc2F)N=C(N)OCC1(F)F
Hi, I'm comparing two records. Which one has the lower Ratio IC50, P or Q ? Provide the label of your selected option as the answer.
Q

====

assay: Ratio of drug uptake in brain to plasma in C57B1/6NJ mouse at 30 mg/kg, po after 4 hrs […]; assay type: ADME, organism-based; set-up: dose 30 mg/kg, route oral; details: read-out: BPR
OBSERVABLE: Kp at 4 h
I only need the number, thanks.

Requested field: Kp at 4 h. Item: `C[C@]1(c2cc(NC(=O)c3ccc(Cl)cn3)ccc2F)N=C(N)OCC1(F)F`
2.3

====

assay: Lipophilicity, log P of the compound; format: physicochemical; conditions: octanol/water
OBSERVABLE: logP
The reply should be a number, written without any unit.

// logP lookup, key: `N#Cc1ccc(C(=O)Nc2ccc(F)c([C@@]3(CF)N=C(N)OC[C@@H]3F)c2)nc1`
1.7
